Data provenance is PubChem BioAssay (NCATS).

experiment: qHTS of pediatric cancer cell lines to identify multiple opportunities for drug repurposing: Primary screen for OHS-50 cells (AID 1347103); conditions: OHS-50 osteosarcoma viability, CellTiter-Glo luminescence, 48 h; series mostly up to 57.3 µM; also: nearly all actives have a fitted effect of over 40% in size
Records with an inconclusive call do not appear. Activity calls are given as the source filed them. Calls follow the shape of the dose curve; as a rule, active = well fitted cell-killing curve with a large enough effect; inconclusive = small, poorly fitted or top-dose-only effect; inactive = no such curve, though single readings can be large or run the other way.
Outcomes: active, inactive

1. Cc1ccc(-c2ccccc2C#N)cc1; inactive
2. O=C(O)Cn1c(=O)n(Cc2ccc(Br)cc2F)c(=O)c2ccc(Cl)cc21; inactive
3. CC(C)NC(=O)c1ccc(C=O)cc1; inactive
4. O=C1CC[C@H](C(=O)N2CCCCC2)N1; inactive
5. O=C(c1cc(O)c(O)c(O)c1)c1ccc(O)c(O)c1O; active
6. CCOC(=O)c1cc(=O)c2c(OCC(COc3cccc4oc(C(=O)OCC)cc(=O)c34)OC(=O)[C@@H](N)CCCCN)cccc2o1; inactive
7. O=C(O)[C@@H](O)[C@H](O)[C@H](O)[C@@H](O)C(=O)O; inactive
8. COc1ccc(/C(C)=C/C(=O)O)c(OC)c1; inactive
9. Cc1ccc2c(Cl)cc(Cl)c(O)c2n1; inactive
10. CC(=O)N1CCN(c2ccc(O)cc2)CC1; inactive
11. CC(C)NCCCC1(C(N)=O)c2ccccc2-c2ccccc21; inactive
12. O=C1NCCN1CCN1CCC(c2cn(-c3ccc(F)cc3)c3ccc(Cl)cc23)CC1; active
13. OC1(c2ccc(Cl)c(C(F)(F)F)c2)CCN(CCCC(c2ccc(F)cc2)c2ccc(F)cc2)CC1; active
14. CCCCCC1Nc2cc(C(F)(F)F)c(S(N)(=O)=O)cc2S(=O)(=O)N1 (configuration not stated); inactive
15. C[C@]12CCC(=O)C=C1CC[C@@H]1[C@@H]2[C@@H](O)C[C@@]2(C)[C@H]1CC[C@]2(O)C(=O)COC(=O)CCC(=O)O; inactive
16. COc1ccccc1OCC1CNC(=O)O1 (configuration not stated); inactive
17. COC(=O)C1=C(C)NC(C)=C(C(=O)OCCc2ccc(N3CCN(C(c4ccccc4)c4ccccc4)CC3)cc2)C1c1cccc([N+](=O)[O-])c1 (configuration not stated); inactive
18. CCCCCCCC(=O)[O-].CCCCCCCC(=O)[O-].[Zn+2]; inactive
19. Nc1cccc2c(N)cccc12; active
20. COc1cc(C(=O)OC(COCCC(C)C)CN2CCOCC2)cc(OC)c1OC (configuration not stated); inactive
21. Cc1cc(O)c(C)c(C)c1O; inactive
22. Nc1c(NC/C=C\COc2cc(CN3CCCCC3)ccn2)c(=O)c1=O; inactive
23. CC(=O)N(CC(=O)N(C)C)c1ccccc1; inactive
24. CC1(C)OC(=O)Nc2ccc(Br)cc21; inactive
25. O=P(O)(O)OCC(O)CO (configuration not stated); inactive
26. CC(=O)Nc1ccc(S(=O)(=O)Nc2cc(C)on2)cc1; inactive
27. COc1cc(/C=C/C(N)=O)cc(OC)c1OC; inactive
28. O=C(Oc1ccccc1)c1cccc(C(=O)Oc2ccccc2)c1; inactive
29. O=c1[nH]c(=O)n([C@H]2O[C@H](CO)[C@@H](O)[C@@H]2O)cc1/C=C\Br; inactive
30. Nc1ccc([N+](=O)[O-])c(C(F)(F)F)c1; inactive
31. N=C(N)c1ccc(OCCCOc2ccc(C(=N)N)cc2)cc1; inactive
32. C[C@@H]1C[C@H]2[C@@H]3CCC4=CC(=O)C=C[C@]4(C)[C@@]3(F)[C@@H](O)C[C@]2(C)[C@@]1(O)C(=O)COC(=O)c1ccncc1; inactive
33. CC(C)C(C)(C)C(C)(C)C(C)(C)S; inactive
34. CC(C)(C)c1nnc(NS(=O)(=O)c2ccccc2)s1; inactive
35. CN1CCC(=C2c3ccccc3CCc3cccnc32)CC1; inactive
36. C=C(C)C(=O)OCC(O)CO (configuration not stated); inactive
37. OC[C@]1(O)OC[C@@H](O)[C@H](O)[C@@H]1O; inactive
38. O=c1[nH]c2ccccc2c(=O)n1CCCl; inactive
39. CCN(CC)CC(=O)Oc1ccc(NC(C)=O)cc1; inactive
40. O=C(NO)c1ccccc1; inactive
41. Nc1ccc(C(=O)N2CC3CC(CN(Cc4ccccc4)C3)C2)cc1; inactive
42. CO/N=C(/C(=O)N[C@@H]1C(=O)N2C(C(=O)[O-])=C(C[n+]3ccn4ncccc43)CS[C@H]12)c1nsc(N)n1; inactive
43. O=C(NN1CCCC1)NS(=O)(=O)c1ccc(Cl)cc1; inactive
44. CCCCCC(=O)O[C@]1(C(C)=O)CC[C@H]2[C@@H]3CCC4=CC(=O)CC[C@]4(C)[C@H]3CC[C@@]21C; active
45. CN1CCN(N)CC1; inactive
46. CC(NN)c1ccccc1 (configuration not stated); inactive
47. C#CC(C)(CC)OC(=O)c1ccccc1C(=O)O (configuration not stated); inactive
